The following compounds are listed with their measured LD50 values.
Assay: Acute toxicity
Assay type: in vivo
Settings: mouse, in vivo; ICR mice (male, 27-30 g), intravenous, up and down method

- Compound: "CNCc1ccc(CSCCNC(=NS(C)(=O)=O)NCC(O)c2ccc(O)cc2)o1 (centres unmarked)"
  Unit Symbol: "mg/kg"
  LD50: 100
- Compound: "CN(C)Cc1ccc(CSCCNC(=NS(C)(=O)=O)NCC(O)c2ccc(O)cc2)o1 (centres unmarked) [Test compound 5, reference compound]"
  Unit Symbol: "mg/kg"
  LD50: 90.7
